As shown below, each of these sequences has a reported Kd value.
molecular target: HLA-A*01:01; experiment: IEDB peptide-MHC binding, purified MHC/competitive/radioactivity; filed as Kd, often an IC50 or EC50 that approximates it; bounds were set here for any values at or beyond the usual limits of such assays; settings: source organism: SARS coronavirus Tor2

>  <sequence.text>
VIEGPTTCGY

>  <Kd>
0.109 µM

$$$$
>  <sequence.text>
TEETFKLSY

>  <Kd>
7.91 µM

$$$$
>  <sequence.text>
MFLARAIVF

>  <Kd>
≥ 78.1 µM

$$$$
>  <sequence.text>
SASKSASVY

>  <Kd>
≥ 24.7 µM

$$$$
>  <sequence.text>
RLSFKELLVY

>  <Kd>
0.239 µM

$$$$
>  <sequence.text>
VDSSQGSEY

>  <Kd>
0.892 µM

$$$$
>  <sequence.text>
EYKLQQGTF

>  <Kd>
≥ 78.1 µM

$$$$
>  <sequence.text>
EYISDAFSL

>  <Kd>
≥ 37.6 µM

$$$$
>  <sequence.text>
VYRGTTTYKL

>  <Kd>
3.91 µM

$$$$
>  <sequence.text>
AMDEFIQRY

>  <Kd>
0.0644 µM

$$$$
>  <sequence.text>
FNAPALQEAY

>  <Kd>
0.284 µM

$$$$
>  <sequence.text>
LFLAFVVFLL

>  <Kd>
0.537 µM

$$$$
>  <sequence.text>
YFMKFRRVF

>  <Kd>
≥ 78.1 µM

$$$$

---

molecular target: HLA-B*48:01; experiment: IEDB peptide-MHC binding, purified MHC/direct/fluorescence; filed as Kd, often an IC50 or EC50 that approximates it; bounds were set here for any values at or beyond the usual limits of such assays; conditions: source organism: Giardia lamblia ATCC 50803
pKd: −log10 of the molar value.

>  <sequence.text>
QLKQRDALF

>  <pKd>
≤ 4.70

$$$$

---

biological target: HLA-A*23:01; experiment: IEDB peptide-MHC binding, purified MHC/competitive/radioactivity; filed as Kd, often an IC50 or EC50 that approximates it; bounds were set here for any values at or beyond the usual limits of such assays; conditions: source organism: Mammarenavirus machupoense

>  <sequence.text>
HCALLDCIMY

>  <tgt>
HLA-A*23:01

>  <Kd>
≥ 70 µM

$$$$

---

molecular target: HLA-B*83:01; assay: IEDB peptide-MHC binding, purified MHC/competitive/fluorescence; filed as Kd, often an IC50 or EC50 that approximates it; bounds were set here for any values at or beyond the usual limits of such assays; details: source organism: Vibrio vulnificus YJ016

>  <sequence.text>
YQRALHTSI

>  <Kd>
≥ 5 µM

$$$$

---

target: HLA-A*31:01; assay: IEDB peptide-MHC binding, purified MHC/direct/fluorescence; filed as Kd, often an IC50 or EC50 that approximates it; bounds were set here for any values at or beyond the usual limits of such assays; conditions: source organism: Influenza A virus (A/Viet Nam/HN/2004(H5N1))
measure.name: Kd

>  <sequence.text>
ERNEQGQTL

>  <tgt>
HLA-A*31:01

>  <obs.value>
≥ 20 µM

$$$$

---

target: HLA-B*15:17; experiment: IEDB peptide-MHC binding, purified MHC/direct/fluorescence; filed as Kd, often an IC50 or EC50 that approximates it; bounds were set here for any values at or beyond the usual limits of such assays; settings: source organism: Entamoeba histolytica HM-1:IMSS

>  <sequence.text>
ISTLPTEQF

>  <Kd [nM]>
6.5

$$$$
